Target: T1, IFF05588
T1 chain: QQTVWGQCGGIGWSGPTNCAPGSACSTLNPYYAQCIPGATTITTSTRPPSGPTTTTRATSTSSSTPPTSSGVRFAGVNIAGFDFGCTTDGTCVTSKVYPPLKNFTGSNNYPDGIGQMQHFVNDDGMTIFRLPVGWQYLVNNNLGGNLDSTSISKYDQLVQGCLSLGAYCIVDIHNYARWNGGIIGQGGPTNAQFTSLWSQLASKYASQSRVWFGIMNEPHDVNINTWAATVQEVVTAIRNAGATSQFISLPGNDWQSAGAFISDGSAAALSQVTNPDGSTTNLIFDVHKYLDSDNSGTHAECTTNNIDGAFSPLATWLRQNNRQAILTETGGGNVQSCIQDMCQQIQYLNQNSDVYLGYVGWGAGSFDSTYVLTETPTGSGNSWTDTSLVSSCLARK
Relative late peak area (centered, scaled, averaged over 5, 10 and 15 min) for assorted proteins
Response field accepts a number only; no unit should be typed.

Worked cases, Relative late peak area (centered, scaled, averaged over 5, 10 and 15 min) given:
# PROTEIN, REPORTED
rows = [
    ("IFF21375 (protein) QTLDKPALTPNLDYLLQGNTDNLQPAASHYGKWEDGWIPADCKSIAEDQQLNPTDFEVYDVFYGDCGDAWSFCRHKSSSDSIDTIIDTFGRVPVRMRSWVRHVLTIPGDNWAFNSNGNIAFSGTTSQNLDVALHETGHSLDLLGAYGETLSSSQTWLDNYNQDPNVPDEYARSNQVENVAQNTVVGIYDKVVPGGFGSVQPNWGNIFHQYSTLQSMAKDTIIPGGTCDRHLANSETVSMASTQSNATRMARIRRVKPSHSFRQTYDNIVEGFTPFSTKDTCHFSWA", 1.08),
    ("IFF21343 (protein) NLDKPVIQPNFPGNGLASLGQGLMDHLAPTHSTWDDWGAGWIPQDCKSMAQGAGFSANDIIPFNIHYDDCAQSWTFCRHKNSPLSELQILDIFGRLPVRMRSFVRHLVFVPGNKSAGSNGDNVLMVGAVDVTVFAHEIGHSLDSHAFDPSYGVPFSTGSVWTSNYNLDSAVPDPYAQTSQQENFAQETVVSLYDKVVPGGIGTIQPNWKAIFHQYATLQGYIGNVIIPGGTCTHRLTDSPPVTMSSAKLRRGLGPKPNVSLSPKVKEIESIPMESSITMTSFDEHGKPNGTYVVHLK", 0.33),
    ("IFF21348 (protein) TLNKPVIQPNFPGGGLASLGPGLLNNLAITSSTSDVWGAGWIPADCKSLVQGAGLSPFDVIPFNIHLSDCSQTWTFCRHKNSPLSQTDIINLFARVPVRMRDFIRHFVFIPGATSAGSNGDNTLMVGNVDITVFLHEIGHSLDSHAFDPSYGVPFSTGNVWVSNYNLDSAVTDSYAQTSQQENFAQETVVSVYDKVVPGGIGTIQPNWQAIFHQYATLEGYIGNTIIPGGTCVNRLTDSQPVPMGNSAKFRRTMGPKPTVSLSPDVKEIKAIPMSDSITMTSFDEFGNVNGTYVIQL", 1.4),
]

With those in mind, consider the next protein.
Output Relative late peak area (centered, scaled, averaged over 5, 10 and 15 min) of IFF21336 (protein) NLNKPVITPNFPGNGLASLGQGLMDHLAPTHSTWDDWGAGWIPQDCKSMVQGAGFSPNDIIPFNIHYDDCAQTWTFCRHKNSPLSEIQILDIFGRLPVRMRQFVRHLVFVPGNKSAGSNGDNVLMVGDVDVTVFAHEIGHSLDSHAFDPSYGVPFSTGNVWVSNYNLDSAVPDPYAQSSQQENFAQQTVVSIYDKVVPGGIGTIQPNWQAIFHQYATLEGYIGNVIIPGGTCTHRLTDSAPVTMSGSKKSRRALGPKPKVSLSPKVKEIEAIPMESSITMTSFDEHGKPNGTYVVHL
-0.34

Data provenance is patent US20250051821.
